Test system: pERK
Test: Immunoblotting of PATU-8902 FKBP12^F36V-KRAS^G12V; KRAS^−/− clone (Example 8), ERK signaling
Assay type: cell-based
Settings: 50 or 500 nM, 4 hrs
measured-endpoint: pERK levels (immunoblot)

compound	measured-endpoint	recorded-result
CC[C@H](C(=O)N1CCCC[C@H]1C(=O)O[C@H](CCc1ccc(OC)c(OC)c1)c1ccccc1OCC(=O)NCCCCCCOc1cccc2c1C(=O)N(C1CCC(=O)N(C)C1=O)C2=O)c1cc(OC)c(OC)c(OC)c1 (stereo partly shown) [Compound 5]	pERK levels (immunoblot)	no effect
CC[C@H](C(=O)N1CCCC[C@H]1C(=O)O[C@H](CCc1ccc(OC)c(OC)c1)c1ccccc1OCC(=O)NCCCCCCC(=O)N[C@H](C(=O)N1C[C@@H](O)C[C@@H]1C(=O)N[C@@H](C)c1ccc(-c2scnc2C)cc1)C(C)(C)C)c1cc(OC)c(OC)c(OC)c1 [Compound 2]	pERK levels (immunoblot)	no effect
